Data provenance: patent US20240327502A1

Substrate: F protein of hMPV B virus (human metapneumovirus subtype B)
experiment: cell-based or functional assay
outcome measure: PRNT IC50 (µg/mL)
Field format: number, assumed µg/mL, no unit text.

M1C11 (antibody, V domains shown) VH: QVQLVQSGAEMKKPGSSVKVSCKTSGGSFSSYPVSWVRQAPGQGPEWMGGIIPLSGTTHYAQMFQGRVSITADDSTRTVFMELTSLRSGDTAVYYCARSGAPTYYYDSSGFHGGAFHFWGQGTVVTVSS VL: DIVMTQSPDSLAVSLGERATINCKSSQSVLYSSNSKSYLAWYQQKPGQPPKLLIYWASSRESGVPDRFSGSGSGTDFTLTISSLQAEDVAVYYCQQFYTSPHTFGQGTKLEIKR
0.444

Attention now turns to another entry.
Task: Entry under review: M1A12 (antibody, V domains shown) VH: QVQLVQSGTEVKKPGSSVKVSCKDPGDIMSSHSIHWVRQAPGQGPEWMGRIIPLFGMKSYAPNFQGRVSISVDTSTNTAYLELSGLKSDDTAVYFCAREENLSWLDYWGQGTQVIVSS VL: EIVLTQSPATLSLSPGDRATLSCRASLRLSTNIAWYQQKPGQAPRLVIYDASKRATGIPARFSGSGSGTDFTLTISSLEPEDFAVYYCHQHSNWYTFGQGTKLEIK . Reported PRNT IC50?
Result: 5
